Measured IC50 accompanies every entry in the list below.
- tested_system: Adenosine A2 receptor (Rattus norvegicus, UniProt P29276+P30543)
Reply numerically in nM, unit not repeated.

// fetch IC50; item: OC[C@H]1OC(n2cnc3c(Nc4cccc(I)c4)ncnc32)[C@H](O)[C@@H]1O (some centres not stated) ; system: Adenosine A2 receptor (Rattus norvegicus, UniProt P29276+P30543) 11900

Find IC50 for Nc1cccc(Nc2ncnc3c2ncn3C2O[C@H](CO)[C@@H](O)[C@H]2O)c1 (some centres not stated) on Adenosine A2 receptor (Rattus norvegicus, UniProt P29276+P30543) and write it down. 10100

Give the observed IC50 of `COc1ccc(Nc2ncnc3c2ncn3[C@@H]2O[C@H](CO)[C@@H](O)[C@H]2O)cc1` for Adenosine A2 receptor (Rattus norvegicus, UniProt P29276+P30543). 1760

Now for the compound whose IC50 we want.
Find IC50 for OC[C@H]1OC(n2cnc3c(Nc4ccc(F)cc4)ncnc32)[C@H](O)[C@@H]1O (some centres not stated) on Adenosine A2 receptor (Rattus norvegicus, UniProt P29276+P30543) and write it down. 860
